Origin of measurements: the supplement of paper PMC9112550

System: Escherichia coli TOP10;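 note: peptides expressed intracellularly from a pBAD plasmid library in pooled LB shake-flask culture, induced with 0.3% L-arabinose, DNA abundance read by NGS, three biological replicates, DESeq2 with apeglm shrinkage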
Assay: shrunken log2 fold change of peptide-encoding DNA abundance (4.5 h post-induction vs induction); higher = less antimicrobial activity (less host growth inhibition)
Conditions: time post-induction: 4.5 h; library: site-saturation at positions 5, 18, 19, 20
Just so you know, the groups by shrunken log2 fold change go like this: lower segment = under 0.03, middle segment = from 0.03 up to 0.2, upper segment = 0.2 and over

Example cases with answers are listed next.
{"Chain": "RRIRQRPPRLPRPRPRPVQQPRP", "Group": "middle segment"}
{"Chain": "RRIRRRPPRLPRPRPRPPWRPRP", "Group": "upper segment"}
{"Chain": "RRIRTRPPRLPRPRPRPDYCPRP", "Group": "lower segment"}
{"Chain": "RRIRERPPRLPRPRPRPYKQPRP", "Group": "lower segment"}

Ask: Where would `RRIRERPPRLPRPRPRPKGFPRP` land among the classes by reported shrunken log2 fold change?
Reply: middle segment

Ask: Next sequence up: `RRIRVRPPRLPRPRPRPQEQPRP`
Reply: middle segment

Ask: Next sequence up: `RRIRIRPPRLPRPRPRPWILPRP`
Reply: lower segment

Ask: Next sequence up: `RRIRRRPPRLPRPRPRPCSQPRP`
Reply: middle segment
